Each recorded value in this set is attributed to patent EP4725969A1.

- targetOrSystem: T1, human HER2 expressed on tumor cells (human, UniProt P04626 23-1255)
- T1 construct: whole, on cells; Cell line is named in each row's assay
- runDescription: flow cytometry, BT474 cells
measurementName: EC50 (µg/mL)
Entry rule: numbers only, all in µg/mL.

Worked examples follow.
[
  {
    "binder": "Hu2117-HK303 (Fc fusion, scFv-hIgG1 Fc; not shown: human IgG1 Fc) scFv: EVQLVESGGGLVQPGGSLRLSCAASGFTYSSYGMSWVRQAPGKGLEWVASISGGGNYAKYVESVKGRFTISRDNSKNTLYLQMNSLRAEDTAVYYCARDYVGFFDVWGQGTLVTVSSGGGGSGGGGSGGGGSDIQMTQSPSSLSASVGDRVTITCRSSQSLVHSNRNTYLHWYQQKPGKAPKLLIYKVSNRFSGVPSRFSGSGSGTDFTLTISSLQPEDFATYFCSQSTHVPYTFGQGTKVEIK",
    "EC50 / µg/mL": 0.101
  },
  {
    "binder": "Hu2117-HK309 (Fc fusion, scFv-hIgG1 Fc; not shown: human IgG1 Fc) scFv: EVQLVESGGGLVQPGGSLRLSCAASGFTYSSYGMSWVRQAPGKGLEWVASISGGGNYAKYVDKVKGRFTISRDNSKNTLYLQMNSLRAEDTAVYYCARDYVGFFDVWGQGTLVTVSSGGGGSGGGGSGGGGSDIQMTQSPSSLSASVGDRVTITCRSSQSLVHSNRNTYLHWYQQKPGKAPKLLIYKVSNRFSGVPSRFSGSGSGTDFTLTISSLQPEDFATYFCSQSTHVPYTFGQGTKVEIK",
    "EC50 / µg/mL": 0.103
  },
  {
    "binder": "Hu2117-HK310 (Fc fusion, scFv-hIgG1 Fc; not shown: human IgG1 Fc) scFv: EVQLVESGGGLVQPGGSLRLSCAASGFTYSSYGMSWVRQAPGKGLEWVASISGGGNYAKYVDNVKGRFTISRDNSKNTLYLQMNSLRAEDTAVYYCARDYVGFFDVWGQGTLVTVSSGGGGSGGGGSGGGGSDIQMTQSPSSLSASVGDRVTITCRSSQSLVHSNRNTYLHWYQQKPGKAPKLLIYKVSNRFSGVPSRFSGSGSGTDFTLTISSLQPEDFATYFCSQSTHVPYTFGQGTKVEIK",
    "EC50 / µg/mL": 0.103
  }
]

Next item in the queue.
For the binder Hu2117-HK203 (Fc fusion, scFv-hIgG1 Fc; not shown: human IgG1 Fc) scFv: EVQLVESGGGLVQPGGSLRLSCAASGFTYSSYGMSWVRQAPGKGLEWVASISGGGNYAKYVDSVKGRFTISRDNSKNTLYLQMNSLRAEDTAVYYCARDYVGFFDVWGQGTLVTVSSGGGGSGGGGSGGGGSDIQMTQSPSSLSASVGDRVTITCRSSQSLVHSNRNTYLHWYQQKPGKAPKLLIYKVSNRFSGVPSRFSGSGSGTDFTLTISSLQPEDFATYFCSQSTHVPYTFGQGTKVEIK , give its reported EC50.
0.102
